Consider the following compounds; for each one, report its pest or weed control at 500 ppm.
system: green peach aphid (Myzus persicae); test: Myzus test (MYZUPE), sprayed aubergine plants; format: in vivo; conditions: application rate of 500 ppm, spray on aubergine plants, read-out: effect in % (aphids killed)

Query: Name the recorded pest or weed control at 500 ppm of the compound listed here: CN(C(=O)c1ccc(Oc2ccccc2Cl)nc1)c1cccnc1 [I-98]
Reply: ≥ 80%

Query: Name the recorded pest or weed control at 500 ppm of the compound listed here: CN(CCC#N)C(=O)c1ccc(C(=O)Nc2cccnc2)cc1 [I-244]
Reply: ≥ 80%

Query: Name the recorded pest or weed control at 500 ppm of the compound listed here: CC(C(=O)c1ccc(Oc2cccc3ncccc23)nc1)c1cccnc1 (stereo not shown) [I-142]
Reply: ≥ 80%

Query: Name the recorded pest or weed control at 500 ppm of the compound listed here: Cc1ccnc(Sc2ccc(C(=O)N(C)c3cccnc3)cn2)n1 [I-137]
Reply: ≥ 80%

Query: Name the recorded pest or weed control at 500 ppm of the compound listed here: Cc1ccc(C(=O)Nc2cccnc2)cn1 [I-38]
Reply: ≥ 80%

Query: Name the recorded pest or weed control at 500 ppm of the compound listed here: Cc1cc(C)nc(Sc2ccc(C(=O)N(C)c3cccnc3)cn2)n1 [I-104]
Reply: ≥ 80%

Query: Name the recorded pest or weed control at 500 ppm of the compound listed here: O=C(Nc1cccnc1)c1ccc(Oc2cccc(C(F)(F)F)c2)nc1 [I-88]
Reply: ≥ 80%

Query: Name the recorded pest or weed control at 500 ppm of the compound listed here: O=C(Nc1cccnc1)c1ccc(Oc2cccc(Cl)c2)nc1 [I-83]
Reply: ≥ 80%

Query: Name the recorded pest or weed control at 500 ppm of the compound listed here: Cc1ccc(Oc2ccc(C(=O)N(C)c3cccnc3)cn2)cc1 [I-102]
Reply: ≥ 80%

Query: Name the recorded pest or weed control at 500 ppm of the compound listed here: Cc1cccc(Oc2ccc(C(=O)N(C)c3cccnc3)cn2)c1 [I-97]
Reply: ≥ 80%
